Assay: reversal of MRP1-mediated doxorubicin resistance, pilot screen, H69AR cells, doxorubicin co-treatment (AID 601)
Conditions: H69AR cells + 2 uM doxorubicin, CellTiter-Glo, 72 h; measured here: viability with 2 uM doxorubicin; at 10 µM; stronger effect = lower value
Lab note: compare viability with 90%, writing criterion met if less and criterion not met if equal or more.

Incoming: For O=C1CCC(C(=O)N(Cc2ccco2)C2(C(=O)NC3CCCC3)CCCCC2)N1 (stereo unspecified) , is the recorded viability below the cut-off of 90%?
Outgoing: criterion not met

Incoming: Lab note: confirm whether the reported viability for this molecule is below 90%, equality not counting. molecule: Cc1[nH]c2ccc(F)cc2c(=O)c1SC(F)(F)C(F)C(F)(F)F (stereo unspecified)
Outgoing: criterion not met

Incoming: Just wondering, is viability of CS(=O)(=O)N(CC(=O)Nc1ccc2c(c1)OCO2)Cc1ccc(Cl)cc1 below 90%?
Outgoing: criterion not met

Incoming: # strict comparison: is reported viability < 90%? input = O=C(O)COc1cccc(NC(=O)C2CCCO2)c1 (stereo unspecified)
Outgoing: criterion not met

Incoming: Is the reported viability for COc1ccc(CNc2oc(-c3cccc4ccccc34)nc2C#N)cc1 strictly below 90%?
Outgoing: criterion not met

Incoming: Is 90% strictly greater than the molecule's reported viability? molecule: C/C(=N\O)C(=O)C(CN1CCCCC1)CN1CCCCC1
Outgoing: criterion met

Incoming: Please state whether viability is below 90% for COc1ccccc1NC(=O)N(Cc1ccco1)Cc1cc2cccc(C)c2[nH]c1=O
Outgoing: criterion met

* * *

Experiment: reversal of MRP1-mediated doxorubicin resistance, pilot screen, H69AR cells, doxorubicin co-treatment (AID 601)
Conditions: H69AR cells + 2 uM doxorubicin, CellTiter-Glo, 72 h; at 10 µM; stronger effect = higher value
Active and inactive are the calls of the source.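 How the source made its calls: active means viability loss from added drug above about 55%, and viability with drug at most 40%, in both replicates (limit read from the data, passing the limit was not always enough); inconclusive means both conditions met in only one replicate; inactive means neither replicate meets both conditions.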
Please provide measured differential viability (reversal) for the entries that follow.

Incoming: // query differential viability (reversal) value for entry O=C(c1cccc2c1C(=O)N(Cc1cccnc1)C2)N1CCN(c2ccccc2)CC1
Outgoing: 3.83% (inactive)

Incoming: What differential viability (reversal) value was documented for this compound, Cc1nc(NC(=O)c2ccccc2)sc1-c1csc(NCc2ccco2)n1 ?
Outgoing: -42.5% (inactive)

Incoming: Please report the recorded differential viability (reversal) for CN(CC(=O)Nc1cccnc1)S(=O)(=O)c1cc(Cl)ccc1Cl .
Outgoing: -7.51% (inactive)

Incoming: State the recorded differential viability (reversal) for this entry: CC(=O)/C(C[N+]1(C)CCCCC1)=N\O
Outgoing: 18.9% (inactive)

Incoming: Query (compound): COc1ccc(Cl)c(N2CCN(CCCNC(=O)Nc3ccc(C)cc3)CC2)c1 ; field requested: differential viability (reversal)
Outgoing: -14.9% (inactive)

Incoming: Field request: differential viability (reversal) | item: CCNc1oc(COc2cccc(C)c2)nc1C#N
Outgoing: 13.8% (inactive)

Incoming: So what's the measured differential viability (reversal) for this one? CC1CN(CC(O)COc2ccccc2C(C)(C)C)CC(C)O1 (stereo unspecified)
Outgoing: -11.3% (inactive)

Incoming: Would you kindly share the measured differential viability (reversal) for CCOc1ccc(CCNc2nc3c(c(=O)n(C)c(=O)n3C)n2CC)cc1OCC ?
Outgoing: 1.88% (inactive)

Incoming: Given Cc1ccc2c(c1)-c1c(cnn1CC(=O)Nc1ccccc1N1CCN(C)CC1)CO2 , state its recorded differential viability (reversal).
Outgoing: 4.26% (inactive)

Incoming: Name the recorded differential viability (reversal) for COc1ccc(OC)c(Nc2ncnc3c2cnn3-c2ccccc2)c1 .
Outgoing: 1.97% (inactive)

Incoming: Fill blank: measured differential viability (reversal) of the compound Cc1nc2cc(C(=O)O)ccc2n1-c1ccc(F)cc1F is ____.
Outgoing: 7.17% (inactive)
